Origin of the recorded values: patent US11220671B2

A set of compounds tested on mature cardiomyocytes (hiPSC-CMs) on AFC-ECM, with measured APD90 Prolongation? @10X ETPC:

| compound | APD90 Prolongation? @10X ETPC |
| --- | --- |
| CCOC(=O)C1=C(C)NC(C)=C(C(=O)OC)C1c1cccc([N+](=O)[O-])c1 (stereo not shown) | No, |
| CN(CCOc1ccc(NS(C)(=O)=O)cc1)CCc1ccc(NS(C)(=O)=O)cc1 [Dofetilide] | Yes |
| COc1cc(N)c(Cl)cc1C(=O)NC1CCN(CCCOc2ccc(F)cc2)CC1OC (stereo not shown) [Cisapride] | No |

----------
# System: mature cardiomyocytes (hiPSC-CMs) on AFC-ECM

| molecule | Arrhythmia Detected? |
| --- | --- |
| CC(C)(C)c1ccc(C(O)CCCN2CCC(C(O)(c3ccccc3)c3ccccc3)CC2)cc1 (stereo not drawn) | No |
| COCCc1ccc(OCC(O)CNC(C)C)cc1 (stereo not drawn) | Yes, |
| CN(CCOc1ccc(NS(C)(=O)=O)cc1)CCc1ccc(NS(C)(=O)=O)cc1 [Dofetilide] | Yes, EAD |
| CCOC(=O)C1=C(C)NC(C)=C(C(=O)OC)C1c1cccc([N+](=O)[O-])c1 (stereo not drawn) | No |
| O=C(CCCN1CC=C(n2c(=O)[nH]c3ccccc32)CC1)c1ccc(F)cc1 | Yes, EAD |
| COc1cc2c(Nc3ccc(Br)cc3F)ncnc2cc1OCC1CCN(C)CC1 | Yes, EAD |
| CN1CCN(C2=Nc3cc(Cl)ccc3Nc3ccccc32)CC1 | No |
| CC/C(=C(\c1ccccc1)c1ccc(OCCN(C)C)cc1)c1ccccc1 | No |
| CCCCCCCN(CC)CCCC(O)c1ccc(NS(C)(=O)=O)cc1 (stereo not drawn) [Ibutilide] | Yes, EAD |
| COc1ccc(CCN2CCC(Nc3nc4ccccc4n3Cc3ccc(F)cc3)CC2)cc1 | Yes |
| COc1ccc(CCN(C)CCCC(C#N)(c2ccc(OC)c(OC)c2)C(C)C)cc1OC (stereo not drawn) | No |
| Cc1nccn1CC1CCc2c(c3ccccc3n2C)C1=O (stereo not drawn) | Yes, EAD |
| Cc1cccc(C)c1OCC(C)N (stereo not drawn) | No |
| COc1ccc([C@@H]2Sc3ccccc3N(CCN(C)C)C(=O)[C@@H]2OC(C)=O)cc1 | No |
| O=c1[nH]c2ccccc2n1C1CCN(CCCC(c2ccc(F)cc2)c2ccc(F)cc2)CC1 [Pimozide] | Yes |
| COc1ccccc1OCC(O)CN1CCN(CC(=O)Nc2c(C)cccc2C)CC1 (stereo not drawn) | No |
